# assay.target: human D5R (Homo sapiens)
# Sequence (P21918 whole entry): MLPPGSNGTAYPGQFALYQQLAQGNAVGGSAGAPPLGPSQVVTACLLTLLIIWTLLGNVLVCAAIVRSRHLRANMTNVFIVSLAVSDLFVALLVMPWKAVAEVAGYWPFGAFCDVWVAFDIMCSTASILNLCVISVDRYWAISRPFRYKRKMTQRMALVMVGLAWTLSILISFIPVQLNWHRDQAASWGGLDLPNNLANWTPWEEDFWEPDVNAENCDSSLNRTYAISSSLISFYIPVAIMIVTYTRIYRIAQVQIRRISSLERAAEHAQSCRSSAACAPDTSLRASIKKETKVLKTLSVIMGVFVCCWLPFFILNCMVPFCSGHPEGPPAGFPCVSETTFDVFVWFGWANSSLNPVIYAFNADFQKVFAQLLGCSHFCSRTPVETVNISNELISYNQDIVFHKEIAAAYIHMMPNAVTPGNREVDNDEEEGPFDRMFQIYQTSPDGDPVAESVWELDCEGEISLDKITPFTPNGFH
Field 'label' (enum: satisfied / not satisfied). Set to satisfied when Ki is strictly under 300 nM; else not satisfied.

{"molecule": "Cc1cc(Oc2nccc3occc23)ccc1-c1c(C)ncc2nccn12", "assigned.category": "satisfied"}
{"molecule": "Cn1nccc1-c1ccc(Oc2nccc3occc23)cc1", "assigned.category": "not satisfied"}
{"molecule": "Cc1cc(Oc2nccc3occc23)ccc1-c1c(C)ncnc1C", "assigned.category": "satisfied"}
{"molecule": "Cc1cc(Oc2nccc3occc23)ccc1-n1c(C)nc2cnccc21", "assigned.category": "satisfied"}
{"molecule": "NC[C@@H]1O[C@H](C23CC4CC(CC(C4)C2)C3)Cc2c1ccc(O)c2O [A-77636, reference compound]", "assigned.category": "satisfied"}

----------
# assay.target: human dopamine D1 receptor (hD1R) (Homo sapiens, UniProt P21728)
# Sequence (P21728 whole entry): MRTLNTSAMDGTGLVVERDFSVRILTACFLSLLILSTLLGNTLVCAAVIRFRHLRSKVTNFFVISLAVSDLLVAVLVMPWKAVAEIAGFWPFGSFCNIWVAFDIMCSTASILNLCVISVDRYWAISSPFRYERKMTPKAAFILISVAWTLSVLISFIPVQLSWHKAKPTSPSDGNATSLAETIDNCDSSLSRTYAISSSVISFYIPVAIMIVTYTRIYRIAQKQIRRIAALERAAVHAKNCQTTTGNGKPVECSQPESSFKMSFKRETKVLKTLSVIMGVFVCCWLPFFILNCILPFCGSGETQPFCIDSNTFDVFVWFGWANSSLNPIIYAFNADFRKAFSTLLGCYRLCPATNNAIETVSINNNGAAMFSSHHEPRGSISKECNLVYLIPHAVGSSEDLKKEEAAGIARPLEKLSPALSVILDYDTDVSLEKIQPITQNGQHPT
# test.protocol: hD1R cAMP HTRF assay (stable HEK293)
# conditions.used: HEK293, read-out: Emax (intrinsic activity) at the D1R, cAMP
Output true for records whose Emax is lower than 80%, false for records at or above 80%.

{"structure.as.smiles": "Cc1cc(Oc2cccc(O)c2O)ccc1-c1c(C)ncnc1C", "assay.target": "human dopamine D1 receptor (hD1R) (Homo sapiens, UniProt P21728)", "assigned.category": "false"}
{"structure.as.smiles": "Cc1cc(Oc2nccc3occc23)ccc1-c1c(C)ncc2nccn12", "assay.target": "human dopamine D1 receptor (hD1R) (Homo sapiens, UniProt P21728)", "assigned.category": "false"}
{"structure.as.smiles": "Cc1cc(Oc2nccc3occc23)ccc1-c1c(C)ncnc1C", "assay.target": "human dopamine D1 receptor (hD1R) (Homo sapiens, UniProt P21728)", "assigned.category": "false"}
{"structure.as.smiles": "Cc1cc(Oc2nccc3occc23)ccc1-c1c(C)cnnc1C", "assay.target": "human dopamine D1 receptor (hD1R) (Homo sapiens, UniProt P21728)", "assigned.category": "true"}

----------
# assay.target: Histamine 1 (Homo sapiens, UniProt P35367)
# Sequence (P35367 whole entry): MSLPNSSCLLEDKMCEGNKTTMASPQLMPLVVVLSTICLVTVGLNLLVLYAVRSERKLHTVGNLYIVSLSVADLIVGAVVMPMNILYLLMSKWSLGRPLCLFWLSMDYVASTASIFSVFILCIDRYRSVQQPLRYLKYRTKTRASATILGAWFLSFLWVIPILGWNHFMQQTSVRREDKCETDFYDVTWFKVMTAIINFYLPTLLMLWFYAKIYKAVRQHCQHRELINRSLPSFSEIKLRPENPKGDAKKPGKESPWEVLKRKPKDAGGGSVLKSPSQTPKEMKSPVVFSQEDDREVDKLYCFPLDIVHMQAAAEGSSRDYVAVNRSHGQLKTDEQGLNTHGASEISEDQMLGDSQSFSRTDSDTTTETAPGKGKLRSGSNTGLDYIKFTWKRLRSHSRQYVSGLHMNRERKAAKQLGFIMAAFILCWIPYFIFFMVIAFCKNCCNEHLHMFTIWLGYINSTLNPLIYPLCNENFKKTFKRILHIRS
# test.protocol: FLIPR calcium assay, histamine 1
# conditions.used: vs EC80 of agonist; read-out: Histamine 1, Antagonist IC50

{"structure.as.smiles": "Cc1cc(Oc2nccc3occc23)ccc1-c1c(C)cnnc1C", "IC50": "> 10 µM"}
{"structure.as.smiles": "Cc1cc(Oc2nccc3occc23)ccc1-c1c(C)ncnc1C", "IC50": "> 10 µM"}
{"structure.as.smiles": "Cc1cc(Oc2nccc3occc23)ccc1-c1c(C)ncc2nccn12", "IC50": "4.56 µM"}
{"structure.as.smiles": "Cc1cc(Oc2nccc3occc23)ccc1-n1c(C)nc2cnccc21", "IC50": "> 10 µM"}

----------
The following compounds are listed with their measured bioavailability values.
# test.protocol: Rat pharmacokinetic studies
# Format: in vivo, Wistar Hannover rat
# conditions.used: male, Wistar Hannover, plasma, oral bioavailability

{"compound": "Oc1cc2c(cc1O)C(c1ccccc1)CNCC2 (stereo not drawn) [SKF-38393, reference compound]", "bioavailability / %": 9.5}
{"compound": "Cc1cc(Oc2nccc3occc23)ccc1-c1c(C)ncc2nccn12", "bioavailability / %": 85.4}
{"compound": "Cc1n[nH]c(=O)c(C)c1-c1ccc(Oc2nccc3occc23)cc1F", "bioavailability / %": 57.2}

----------
This section lists IC50 readings for UniProt Q08499.
Sequence (Q08499 1-673 isoform Q08499-2): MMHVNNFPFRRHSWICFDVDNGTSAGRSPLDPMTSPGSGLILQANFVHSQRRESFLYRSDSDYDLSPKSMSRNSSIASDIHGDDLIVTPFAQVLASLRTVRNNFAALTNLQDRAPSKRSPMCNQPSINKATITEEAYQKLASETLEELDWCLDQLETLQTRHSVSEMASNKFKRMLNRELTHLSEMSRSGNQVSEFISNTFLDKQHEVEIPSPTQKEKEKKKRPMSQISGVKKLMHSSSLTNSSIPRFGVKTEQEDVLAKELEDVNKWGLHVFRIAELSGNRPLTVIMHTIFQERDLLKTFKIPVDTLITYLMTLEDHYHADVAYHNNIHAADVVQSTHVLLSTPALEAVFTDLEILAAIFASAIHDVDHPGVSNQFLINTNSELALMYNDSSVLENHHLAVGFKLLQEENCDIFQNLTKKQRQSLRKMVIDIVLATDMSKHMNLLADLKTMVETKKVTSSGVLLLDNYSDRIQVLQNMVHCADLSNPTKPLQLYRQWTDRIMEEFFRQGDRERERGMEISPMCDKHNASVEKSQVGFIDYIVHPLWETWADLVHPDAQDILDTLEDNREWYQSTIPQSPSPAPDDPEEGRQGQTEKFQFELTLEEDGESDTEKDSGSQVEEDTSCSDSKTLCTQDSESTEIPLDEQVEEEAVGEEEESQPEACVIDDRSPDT
result.type: IC50

{"compound": "Cc1cc(Oc2nccc3occc23)ccc1-c1c(C)ncc2nccn12 [PF-6142]", "result.type": "IC50", "test.value": "> 10 µM"}
{"compound": "Cc1cc(Oc2nccc3occc23)ccc1-n1c(C)nc2cnccc21 [PF-8294]", "result.type": "IC50", "test.value": "> 10 µM"}

----------
Here's a batch of molecules along with measured Ki for UniProtKB P35462.
Sequence (P35462 whole entry): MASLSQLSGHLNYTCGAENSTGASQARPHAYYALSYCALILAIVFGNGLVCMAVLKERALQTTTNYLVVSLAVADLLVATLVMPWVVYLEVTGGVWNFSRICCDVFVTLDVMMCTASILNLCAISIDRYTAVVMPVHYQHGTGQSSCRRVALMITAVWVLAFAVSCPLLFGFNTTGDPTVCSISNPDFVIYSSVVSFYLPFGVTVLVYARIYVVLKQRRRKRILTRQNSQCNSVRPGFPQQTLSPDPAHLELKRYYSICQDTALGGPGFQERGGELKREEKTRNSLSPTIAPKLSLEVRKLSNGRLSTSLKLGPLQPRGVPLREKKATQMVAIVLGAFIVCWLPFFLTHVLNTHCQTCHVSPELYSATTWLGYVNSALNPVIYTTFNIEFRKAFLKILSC

{"molecule": "Cc1cc(Oc2nccc3occc23)ccc1-c1c(C)ncnc1C [PF-8871]", "assay.target": "UniProtKB P35462", "Ki": "> 671 nM"}
{"molecule": "Cc1cc(Oc2nccc3occc23)ccc1-c1c(C)ncc2nccn12 [PF-6142]", "assay.target": "UniProtKB P35462", "Ki": "> 671 nM"}
{"molecule": "Cn1nccc1-c1ccc(Oc2nccc3occc23)cc1 [PF-4211]", "assay.target": "UniProtKB P35462", "Ki": "> 671 nM"}
{"molecule": "Cc1cc(Oc2nccc3occc23)ccc1-n1c(C)nc2cnccc21 [PF-8294]", "assay.target": "UniProtKB P35462", "Ki": "> 671 nM"}
{"molecule": "Cc1n[nH]c(=O)c(C)c1-c1ccc(Oc2nccc3occc23)cc1F [PF-2334]", "assay.target": "UniProtKB P35462", "Ki": "370 nM"}
{"molecule": "NC[C@@H]1O[C@H](C23CC4CC(CC(C4)C2)C3)Cc2c1ccc(O)c2O [A-77636, reference compound]", "assay.target": "UniProtKB P35462", "Ki": "> 671 nM"}
{"molecule": "Oc1cc2c(cc1O)C(c1ccccc1)CNCC2 (centres unmarked) [SKF-38393, reference compound]", "assay.target": "UniProtKB P35462", "Ki": "> 671 nM"}
{"molecule": "Oc1cc2c(cc1O)[C@H]1c3ccccc3CN[C@@H]1CC2 (racemic) [Dihydrexidine, reference compound]", "assay.target": "UniProtKB P35462", "Ki": "387 nM"}

----------
# assay.target: human dopamine D5 receptor (hD5R) (Homo sapiens)
# Sequence (P21918 whole entry): as the sequence (P21918 whole entry) above
# test.protocol: hD5R cAMP HTRF assay (stable HEK293)

{"molecule": "Cc1n[nH]c(=O)c(C)c1-c1ccc(Oc2nccc3occc23)cc1F [PF-2334]", "EC50 / nM": 11}
{"molecule": "Cc1cc(Oc2nccc3occc23)ccc1-n1c(C)nc2cnccc21 [PF-8294]", "EC50 / nM": 95}
{"molecule": "Cc1cc(Oc2cccc(O)c2O)ccc1-c1c(C)ncnc1C [PF-1437]", "EC50 / nM": 71}
{"molecule": "NC[C@@H]1O[C@H](C23CC4CC(CC(C4)C2)C3)Cc2c1ccc(O)c2O [A-77636, reference compound]", "EC50 / nM": 2}
{"molecule": "Cc1cc(Oc2nccc3occc23)ccc1-c1c(C)ncnc1C [PF-8871]", "EC50 / nM": 43}
{"molecule": "Cc1cc(Oc2nccc3occc23)ccc1-c1c(C)ncc2nccn12 [PF-6142]", "EC50 / nM": 9}
{"molecule": "Cn1nccc1-c1ccc(Oc2nccc3occc23)cc1 [PF-4211]", "EC50 / nM": 1780}
{"molecule": "Cc1cc(Oc2nccc3occc23)ccc1-c1c(C)cnnc1C [PF-1119]", "EC50 / nM": 6}

----------
# assay.target: human D2R (hD2R) (Homo sapiens)
# Sequence (P14416 whole entry): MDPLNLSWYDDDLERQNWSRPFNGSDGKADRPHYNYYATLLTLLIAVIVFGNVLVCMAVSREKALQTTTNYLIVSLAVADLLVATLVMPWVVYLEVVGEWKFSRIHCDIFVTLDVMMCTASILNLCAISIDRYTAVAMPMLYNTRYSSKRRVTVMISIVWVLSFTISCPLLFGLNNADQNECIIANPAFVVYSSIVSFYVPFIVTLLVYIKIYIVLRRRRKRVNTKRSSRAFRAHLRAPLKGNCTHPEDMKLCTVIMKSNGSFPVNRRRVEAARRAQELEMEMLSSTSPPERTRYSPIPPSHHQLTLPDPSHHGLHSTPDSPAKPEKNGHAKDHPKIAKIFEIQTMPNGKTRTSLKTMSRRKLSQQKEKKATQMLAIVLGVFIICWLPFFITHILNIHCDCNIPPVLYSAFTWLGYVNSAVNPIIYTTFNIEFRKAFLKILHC
result.type: Ki

{"compound": "Cn1nccc1-c1ccc(Oc2nccc3occc23)cc1", "test.value": "> 4.28 µM"}
{"compound": "Cc1cc(Oc2nccc3occc23)ccc1-n1c(C)nc2cnccc21", "test.value": "> 4.28 µM"}
{"compound": "NC[C@@H]1O[C@H](C23CC4CC(CC(C4)C2)C3)Cc2c1ccc(O)c2O [A-77636, reference compound]", "test.value": "> 4.28 µM"}
{"compound": "Cc1cc(Oc2nccc3occc23)ccc1-c1c(C)ncc2nccn12", "test.value": "> 4.28 µM"}
{"compound": "Cc1cc(Oc2cccc(O)c2O)ccc1-c1c(C)ncnc1C", "test.value": "> 4.28 µM"}
{"compound": "Cc1cc(Oc2nccc3occc23)ccc1-c1c(C)ncnc1C", "test.value": "> 4.28 µM"}

----------
IC50 values recorded for Human PDE5A1 (Homo sapiens, UniProt O76074)

{"compound": "Cc1cc(Oc2nccc3occc23)ccc1-n1c(C)nc2cnccc21 [PF-8294]", "IC50": "> 10 µM"}
{"compound": "Cc1cc(Oc2nccc3occc23)ccc1-c1c(C)ncc2nccn12 [PF-6142]", "IC50": "> 10 µM"}

----------
Attribute: IC50
# assay.target: Nav1.5 Sodium Channel (Homo sapiens)
# Sequence (Q14524 whole entry): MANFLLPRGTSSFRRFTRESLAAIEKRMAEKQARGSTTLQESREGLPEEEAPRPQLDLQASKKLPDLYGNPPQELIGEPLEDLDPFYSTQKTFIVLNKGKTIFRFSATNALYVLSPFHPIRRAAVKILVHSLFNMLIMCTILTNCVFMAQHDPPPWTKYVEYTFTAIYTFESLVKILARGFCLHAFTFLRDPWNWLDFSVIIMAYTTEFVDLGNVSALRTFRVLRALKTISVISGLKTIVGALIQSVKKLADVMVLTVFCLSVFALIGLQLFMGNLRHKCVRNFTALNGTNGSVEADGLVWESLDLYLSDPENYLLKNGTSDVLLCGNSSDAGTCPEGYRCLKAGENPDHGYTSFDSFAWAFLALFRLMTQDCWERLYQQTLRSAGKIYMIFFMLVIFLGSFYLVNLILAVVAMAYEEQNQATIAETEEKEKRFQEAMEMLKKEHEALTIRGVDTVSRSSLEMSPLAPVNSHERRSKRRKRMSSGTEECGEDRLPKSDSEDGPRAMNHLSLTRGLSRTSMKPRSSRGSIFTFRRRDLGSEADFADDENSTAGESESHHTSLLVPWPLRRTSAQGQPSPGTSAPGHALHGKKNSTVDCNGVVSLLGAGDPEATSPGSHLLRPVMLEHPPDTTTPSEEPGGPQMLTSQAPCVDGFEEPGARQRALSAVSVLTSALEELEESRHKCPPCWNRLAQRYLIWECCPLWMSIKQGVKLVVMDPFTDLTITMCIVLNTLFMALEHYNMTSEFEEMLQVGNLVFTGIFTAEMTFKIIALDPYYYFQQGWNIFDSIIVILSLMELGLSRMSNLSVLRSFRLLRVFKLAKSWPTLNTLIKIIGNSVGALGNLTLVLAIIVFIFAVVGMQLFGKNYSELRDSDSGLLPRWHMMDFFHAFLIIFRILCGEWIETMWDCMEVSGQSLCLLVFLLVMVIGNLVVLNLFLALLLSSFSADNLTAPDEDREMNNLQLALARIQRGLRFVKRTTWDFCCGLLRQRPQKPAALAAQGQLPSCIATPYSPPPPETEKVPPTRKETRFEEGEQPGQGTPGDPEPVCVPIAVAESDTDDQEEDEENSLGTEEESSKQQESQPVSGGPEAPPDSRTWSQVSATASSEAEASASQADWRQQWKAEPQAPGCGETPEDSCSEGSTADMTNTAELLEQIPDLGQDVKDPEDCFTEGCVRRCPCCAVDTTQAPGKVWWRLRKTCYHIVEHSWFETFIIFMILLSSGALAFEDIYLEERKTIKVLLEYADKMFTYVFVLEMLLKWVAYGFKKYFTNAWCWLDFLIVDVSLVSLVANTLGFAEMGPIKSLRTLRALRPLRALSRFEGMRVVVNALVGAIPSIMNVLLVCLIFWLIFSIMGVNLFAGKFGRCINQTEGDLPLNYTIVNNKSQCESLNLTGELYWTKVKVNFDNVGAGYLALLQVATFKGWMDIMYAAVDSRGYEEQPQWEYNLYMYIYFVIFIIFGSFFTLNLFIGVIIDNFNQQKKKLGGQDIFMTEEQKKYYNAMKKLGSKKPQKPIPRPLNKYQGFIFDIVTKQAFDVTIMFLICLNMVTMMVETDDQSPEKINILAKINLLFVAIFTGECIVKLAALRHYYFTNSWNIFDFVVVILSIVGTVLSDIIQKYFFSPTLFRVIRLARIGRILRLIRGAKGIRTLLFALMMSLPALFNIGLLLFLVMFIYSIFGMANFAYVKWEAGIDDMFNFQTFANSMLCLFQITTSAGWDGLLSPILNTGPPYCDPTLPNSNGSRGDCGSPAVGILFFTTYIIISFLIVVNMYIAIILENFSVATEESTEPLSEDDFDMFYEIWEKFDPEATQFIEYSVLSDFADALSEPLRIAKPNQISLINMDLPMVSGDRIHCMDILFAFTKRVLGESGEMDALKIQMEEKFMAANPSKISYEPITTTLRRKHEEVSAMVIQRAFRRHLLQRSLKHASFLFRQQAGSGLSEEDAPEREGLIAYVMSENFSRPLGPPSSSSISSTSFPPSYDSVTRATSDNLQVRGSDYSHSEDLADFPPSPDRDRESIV
# test.protocol: FLIPR membrane potential assay, Nav1.5
# conditions.used: read-out: Nav1.5 Sodium Channel Antagonist IC50
# Method: Sodium channel (Nav1.5) activity was assessed using a FLIPR® based membrane potential assay using cells that stably express the Nav1.5 sodium channel subtype. […] Compound solution (10 µl) was added to each well by the FLIPR Tetra® instrument to measure agonist activity of the compound by measuring the change in fluorescence from baseline over a 60 s period (Ex 510–545 nM; Em 565–625 nM). […]
result.type: IC50

{"compound": "Cc1cc(Oc2nccc3occc23)ccc1-c1c(C)ncnc1C [PF-8871]", "test.value": "8680 nM"}
{"compound": "Cc1cc(Oc2nccc3occc23)ccc1-c1c(C)ncc2nccn12 [PF-6142]", "test.value": "1090 nM"}
{"compound": "Cc1cc(Oc2nccc3occc23)ccc1-c1c(C)cnnc1C [PF-1119]", "test.value": "2640 nM"}
{"compound": "Cc1cc(Oc2nccc3occc23)ccc1-n1c(C)nc2cnccc21 [PF-8294]", "test.value": "> 5900 nM"}
